tested on: 379773-124-R-J2-PDC spheroid viability; assay: Anticancer human tumor 379773-124-R-J2-PDC patient-derived endometrial carcinoma cell line growth inhibition [POLQ]; settings: second compound 0.0316 µM; first compound 0.001 µM; stronger effect = lower value; spheroids with HUVEC and MSC
# viability, T/C per entry
Expressed in %, but write only the number.

Consider the following illustrative entries.
molecule	experimental_target	viability, T/C (%)
CC[C@@]1(O)C(=O)OCc2c1cc1n(c2=O)Cc2cc3c(CN(C)C)c(O)ccc3nc2-1 + Nc1ccc(C#CCN(C(=O)Cc2ncc(C(F)(F)F)cc2C(F)(F)F)c2ccc(F)cc2)nn1	379773-124-R-J2-PDC spheroid viability	89
CC[C@@]1(O)C(=O)OCc2c1cc1n(c2=O)Cc2cc3c(CN(C)C)c(O)ccc3nc2-1 + Cc1cccc(N(C)C(=O)C2C(O)CCN2c2nc(C)cc(C(F)(F)F)c2C#N)c1	379773-124-R-J2-PDC spheroid viability	89.1
Cn1ncnc1[C@H]1c2n[nH]c(=O)c3cc(F)cc(c23)N[C@@H]1c1ccc(F)cc1 + Nc1ccc(C#CCN(C(=O)Cc2ncc(C(F)(F)F)cc2C(F)(F)F)c2ccc(F)cc2)nn1	379773-124-R-J2-PDC spheroid viability	86.2
CC[C@@]1(O)C(=O)OCc2c1cc1n(c2=O)Cc2cc3c(CN(C)C)c(O)ccc3nc2-1 + COC1C(OC(N)=O)C(O)C(Oc2ccc3c(O)c(NC(=O)c4ccc(O)c(CC=C(C)C)c4)c(=O)oc3c2C)OC1(C)C	379773-124-R-J2-PDC spheroid viability	79.3
Cn1ncnc1[C@H]1c2n[nH]c(=O)c3cc(F)cc(c23)N[C@@H]1c1ccc(F)cc1 + Cc1cccc(N(C)C(=O)C2C(O)CCN2c2nc(C)cc(C(F)(F)F)c2C#N)c1	379773-124-R-J2-PDC spheroid viability	78.9

We now examine a further molecule.
Query: Name the recorded viability, T/C for Cn1ncnc1[C@H]1c2n[nH]c(=O)c3cc(F)cc(c23)N[C@@H]1c1ccc(F)cc1 + COC1C(OC(N)=O)C(O)C(Oc2ccc3c(O)c(NC(=O)c4ccc(O)c(CC=C(C)C)c4)c(=O)oc3c2C)OC1(C)C .
Result: 82.9

###

tested on: 379773-124-R-J2-PDC spheroid viability; assay: Anticancer human tumor 379773-124-R-J2-PDC cell line growth inhibition [POLQ]; conditions: second compound 3.16 µM; first compound 0.1 µM; stronger effect = lower value; spheroids with HUVEC and MSC;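 further: spheroids exposed to drugs for seven days before readout; percent viability relative to DMSO vehicle control taken as 100%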
assay_endpoint: viability, T/C (%)
Expressed in %, but write only the number.

Consider the following illustrative entries.
compound	experimental_target	viability, T/C (%)
CC1COCCN1c1cc(-c2ccnn2C)c2ccnc(-c3ccn[nH]3)c2n1 (stereo not given) + Cc1cccc(N(C)C(=O)C2C(O)CCN2c2nc(C)cc(C(F)(F)F)c2C#N)c1	379773-124-R-J2-PDC spheroid viability	50.7
CC1COCCN1c1cc(C2(S(C)(=N)=O)CC2)nc(-c2ccnc3[nH]ccc23)n1 (stereo not given) + COC1C(OC(N)=O)C(O)C(Oc2ccc3c(O)c(NC(=O)c4ccc(O)c(CC=C(C)C)c4)c(=O)oc3c2C)OC1(C)C	379773-124-R-J2-PDC spheroid viability	88.2
CCc1cc2c(N3CCc4c(cc(Cn5ccnc5)cc4-c4cn(C)nc4C(F)(F)F)C3=O)cc(C)nc2c(OC)n1 + Cc1cccc(N(C)C(=O)C2C(O)CCN2c2nc(C)cc(C(F)(F)F)c2C#N)c1	379773-124-R-J2-PDC spheroid viability	73.6
O=C(Nc1ccc(O)c(NS(=O)(=O)c2ccc(F)cc2)c1)c1ccc(-c2ccccc2)cc1 + Cc1cccc(N(C)C(=O)C2C(O)CCN2c2nc(C)cc(C(F)(F)F)c2C#N)c1	379773-124-R-J2-PDC spheroid viability	90.3

Query: Name the recorded viability, T/C for COc1cc(C2c3cc4c(cc3C(OC3OC5COC(C)OC5C(O)C3O)C3COC(=O)C23)OCO4)cc(OC)c1O (stereo not given) + Cc1cccc(N(C)C(=O)C2C(O)CCN2c2nc(C)cc(C(F)(F)F)c2C#N)c1 .
Result: 80.9

###

Tested on: 379773-124-R-J2-PDC spheroid viability
Assay: Anticancer human tumor 379773-124-R-J2-PDC cell line growth inhibition [POLQ];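 further: spheroids exposed to drugs for seven days before readout; percent viability relative to DMSO vehicle control taken as 100%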
Conditions: second compound 10 µM; first compound 0.1 µM; stronger effect = lower value; spheroids with HUVEC and MSC
Description: Multicellular complex tumor spheroid response to Polymerase (POL) inhibitors (novobiocin, ART-558, RP6685) in combination with a variety of drugs and investigational agents in selected tumor cell lines The POL inhibitors (novobiocin, ART-558, and RP6685) were evaluated both individually and in combination with standard of care and investigational anticancer small molecules within a complex spheroid model of solid tumors. . […]
# viability, T/C per entry
Expressed in %, but write only the number.

compound	viability, T/C, %
Cn1ncnc1[C@H]1c2n[nH]c(=O)c3cc(F)cc(c23)N[C@@H]1c1ccc(F)cc1 + Nc1ccc(C#CCN(C(=O)Cc2ncc(C(F)(F)F)cc2C(F)(F)F)c2ccc(F)cc2)nn1	56.5
CC1COCCN1c1cc(-c2ccnn2C)c2ccnc(-c3ccn[nH]3)c2n1 (stereo unspecified) + Cc1cccc(N(C)C(=O)C2C(O)CCN2c2nc(C)cc(C(F)(F)F)c2C#N)c1	49.3
COc1cccc2c1C(=O)c1c(O)c3c(c(O)c1C2=O)CC(O)(C(=O)CO)CC3OC1CC(N)C(O)C(C)O1 (stereo unspecified) + Cc1cccc(N(C)C(=O)C2C(O)CCN2c2nc(C)cc(C(F)(F)F)c2C#N)c1	12
CCc1c2c(nc3ccc(O)cc13)-c1cc3c(c(=O)n1C2)COC(=O)[C@]3(O)CC + Cc1cccc(N(C)C(=O)C2C(O)CCN2c2nc(C)cc(C(F)(F)F)c2C#N)c1	3.13
CC(C)n1c(=O)n(C)c2cnc3cc(F)c(-c4ccc(OCCCN5CCCCC5)nc4)cc3c21 + Nc1ccc(C#CCN(C(=O)Cc2ncc(C(F)(F)F)cc2C(F)(F)F)c2ccc(F)cc2)nn1	89.7
O=C(Nc1ccc(O)c(NS(=O)(=O)c2ccc(F)cc2)c1)c1ccc(-c2ccccc2)cc1 + Cc1cccc(N(C)C(=O)C2C(O)CCN2c2nc(C)cc(C(F)(F)F)c2C#N)c1	93.1
COc1cc2cc(C(=O)CCC(=O)O)sc2cc1OC + COC1C(OC(N)=O)C(O)C(Oc2ccc3c(O)c(NC(=O)c4ccc(O)c(CC=C(C)C)c4)c(=O)oc3c2C)OC1(C)C	86.1
Nc1ccn(C2OC(CO)C(O)C2(F)F)c(=O)n1 (stereo unspecified) + Nc1ccc(C#CCN(C(=O)Cc2ncc(C(F)(F)F)cc2C(F)(F)F)c2ccc(F)cc2)nn1	31.3

Query: Given the entry CNCc1ccc(-c2[nH]c3cc(F)cc4c3c2CCNC4=O)cc1 + Nc1ccc(C#CCN(C(=O)Cc2ncc(C(F)(F)F)cc2C(F)(F)F)c2ccc(F)cc2)nn1 , what viability, T/C was observed with 379773-124-R-J2-PDC spheroid viability?
Result: 88.4

Query: Given the entry C=CC(=O)N1CCN(c2nc(=O)n(-c3c(C)ccnc3C(C)C)c3nc(-c4c(O)cccc4F)c(F)cc23)C(C)C1 (stereo unspecified) + Nc1ccc(C#CCN(C(=O)Cc2ncc(C(F)(F)F)cc2C(F)(F)F)c2ccc(F)cc2)nn1 , what viability, T/C was observed with 379773-124-R-J2-PDC spheroid viability?
Result: 91.4

Query: Given the entry COc1ccc([C@@H](O)c2cc(-c3ncnc4cc(N5CCOCC5)ccc34)c(F)cc2Cl)nn1 + Cc1cccc(N(C)C(=O)C2C(O)CCN2c2nc(C)cc(C(F)(F)F)c2C#N)c1 , what viability, T/C was observed with 379773-124-R-J2-PDC spheroid viability?
Result: 78.5

Query: Given the entry C=CC(=O)N1CCN(c2nc(=O)n(-c3c(C)ccnc3C(C)C)c3nc(-c4c(O)cccc4F)c(F)cc23)C(C)C1 (stereo unspecified) + COC1C(OC(N)=O)C(O)C(Oc2ccc3c(O)c(NC(=O)c4ccc(O)c(CC=C(C)C)c4)c(=O)oc3c2C)OC1(C)C , what viability, T/C was observed with 379773-124-R-J2-PDC spheroid viability?
Result: 85.1

Query: Given the entry C=CCn1c(=O)c2cnc(Nc3ccc(N4CCN(C)CC4)cc3)nc2n1-c1cccc(C(C)(C)O)n1 + Cc1cccc(N(C)C(=O)C2C(O)CCN2c2nc(C)cc(C(F)(F)F)c2C#N)c1 , what viability, T/C was observed with 379773-124-R-J2-PDC spheroid viability?
Result: 89.5

Query: Given the entry CCc1cc2c(N3CCc4c(cc(Cn5ccnc5)cc4-c4cn(C)nc4C(F)(F)F)C3=O)cc(C)nc2c(OC)n1 + COC1C(OC(N)=O)C(O)C(Oc2ccc3c(O)c(NC(=O)c4ccc(O)c(CC=C(C)C)c4)c(=O)oc3c2C)OC1(C)C , what viability, T/C was observed with 379773-124-R-J2-PDC spheroid viability?
Result: 58.7

These measurements were taken from PubChem BioAssay AID1963848.
